# assay.details: Cytotoxicity against human BEAS-2B cells assessed as inhibition of cell viability incubated for 48 hrs by CCK-8 assay
# Type: toxicity, cell-based

[
  {
    "molecular.string": "COc1cc(/C=C/c2ccc(OC)cc2OC)cc(OC)c1",
    "IC50 at 48 h": "2.9 µM"
  },
  {
    "molecular.string": "N#Cc1ccc(-c2csc(C(=O)Nc3ccc(C(F)(F)F)cc3)n2)cc1",
    "IC50 at 48 h": "> 20 µM"
  },
  {
    "molecular.string": "N#Cc1ccc(-c2csc(C(=O)Nc3cc(Cl)cc(Cl)c3)n2)cc1",
    "IC50 at 48 h": "> 20 µM"
  },
  {
    "molecular.string": "O=C(Nc1cc(Cl)cc(Cl)c1)c1nc(-c2cccc(Cl)c2)cs1",
    "IC50 at 48 h": "> 20 µM"
  }
]
